Target: T1, human IL2Rγ (endogenously expressed on cells) (human, UniProt P31785 23-369)
T1 sequence (looked up): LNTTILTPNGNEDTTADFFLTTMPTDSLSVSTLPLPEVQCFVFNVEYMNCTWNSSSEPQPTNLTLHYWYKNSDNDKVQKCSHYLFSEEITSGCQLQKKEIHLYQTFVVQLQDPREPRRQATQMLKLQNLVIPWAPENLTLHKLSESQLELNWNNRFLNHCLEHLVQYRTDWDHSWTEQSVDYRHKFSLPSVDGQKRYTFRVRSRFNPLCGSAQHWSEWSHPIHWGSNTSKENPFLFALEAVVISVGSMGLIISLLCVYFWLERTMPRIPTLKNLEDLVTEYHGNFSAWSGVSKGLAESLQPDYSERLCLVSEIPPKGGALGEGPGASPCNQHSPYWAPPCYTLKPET
Experiment: cell-based or functional assay
This section presents binders with their documented Max Inhibition (%); IL-2 30 pM; NK92/hIL7R/STAT3-luc values.
endpoint: Max Inhibition (%); IL-2 30 pM; NK92/hIL7R/STAT3-luc

binder	value
H4H12863P (antibody, human IgG4 S228P, kappa, V domains shown, human IgG4) VH: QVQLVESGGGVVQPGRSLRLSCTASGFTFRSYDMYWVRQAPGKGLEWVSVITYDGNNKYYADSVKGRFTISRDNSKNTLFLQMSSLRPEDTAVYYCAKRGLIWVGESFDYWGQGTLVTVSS VL: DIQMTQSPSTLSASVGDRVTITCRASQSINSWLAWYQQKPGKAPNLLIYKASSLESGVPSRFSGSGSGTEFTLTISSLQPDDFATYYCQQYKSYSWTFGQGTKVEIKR	48
H4H12874P (antibody, human IgG4 S228P, kappa, V domains shown, human IgG4) VH: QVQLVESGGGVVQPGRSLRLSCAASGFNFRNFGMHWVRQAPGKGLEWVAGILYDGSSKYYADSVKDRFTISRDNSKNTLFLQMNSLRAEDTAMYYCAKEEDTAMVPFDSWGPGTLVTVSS VL: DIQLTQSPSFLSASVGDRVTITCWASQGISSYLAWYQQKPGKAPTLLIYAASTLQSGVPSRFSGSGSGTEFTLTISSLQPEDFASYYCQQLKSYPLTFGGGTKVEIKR	26
H4H12886P (antibody, human IgG4 S228P, kappa, V domains shown, human IgG4) VH: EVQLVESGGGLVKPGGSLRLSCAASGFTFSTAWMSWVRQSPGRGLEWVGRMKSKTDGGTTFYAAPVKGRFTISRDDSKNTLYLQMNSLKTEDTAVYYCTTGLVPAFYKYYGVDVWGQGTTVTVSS VL: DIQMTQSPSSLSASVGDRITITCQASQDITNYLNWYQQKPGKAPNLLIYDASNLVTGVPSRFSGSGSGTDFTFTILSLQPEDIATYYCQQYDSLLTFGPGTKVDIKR	27
H4H12884P (antibody, human IgG4 S228P, kappa, V domains shown, human IgG4) VH: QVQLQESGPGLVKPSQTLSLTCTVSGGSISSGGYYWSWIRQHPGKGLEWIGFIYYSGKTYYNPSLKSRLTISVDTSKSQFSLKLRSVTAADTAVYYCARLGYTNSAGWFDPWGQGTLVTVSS VL: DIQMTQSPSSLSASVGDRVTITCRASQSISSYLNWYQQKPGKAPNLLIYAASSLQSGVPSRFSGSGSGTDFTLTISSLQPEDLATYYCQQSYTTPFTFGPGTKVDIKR	13
